- protocol-text: hepatitis C replication reporter changes, two-sided – Huh7 cells, luciferase reporter, HCV replication inhibitor project, primary screen (AID 1109);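 also: huh7 hepatoma cells harbouring a luciferase neomycin HCV replicon reporter; luciferase luminescence as measure of HCV replicon replication; test concentration not given here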
- conditions: Huh7 HCV replicon luciferase reporter, 48 h; higher = more signal
In this section, each of the compounds is paired with its reported z-score.

The examples below pair each entry with its known result.
# get_value(readout='z-score', item= CCOC(=O)C1=C[C@@H](C(C)C)N(S(=O)(=O)c2ccc(C)cc2)[C@H]1c1ccc(C(F)(F)F)cc1 ) -0.972

# get_value(readout='z-score', item= COC(=O)[C@@]1(Cc2ccc(F)cc2)[C@H]2c3cc(C(=O)N4CCCC4)n(Cc4ccc(C)c(F)c4F)c3C[C@H]2CN1C(=O)c1ccccc1 ) -0.914

# get_value(readout='z-score', item= O=C(NCCN1CCOCC1)[C@@H]1c2ccccc2C(=O)N(C2Cc3ccccc3C2)[C@H]1c1ccc(CO)cc1 ) -1.42

Could you now consider this next compound?
# get_value(readout='z-score', item= CCOC(=O)C[C@H]1[C@H](OC(=O)c2cc3ccccc3oc2=O)[C@@H](NC(=O)c2ccccc2)c2cc(OCCCO)ccc2N1C(=O)c1ccccc1 ) -0.148

###

- System: wheat germ agglutinin (Triticum aestivum), Alexa647-labelled
- protocol-text: Alexa647-WGA lectin binding to printed small molecules – biochemical, small-molecule microarray, 635/667 nm fluorescence, artefact control for SMM control-protein annotation, profiling panel (AID 1140);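 also: score merges 667 nm feature emission with signal to noise over triplicate slides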
- conditions: WGA-A647 binding, 635 nm fluorescence, higher = more signal
measured-property: composite z-score
Enter a number only.

# get_value(readout='composite z-score', item= NC(=O)NCC#Cc1ccc2c(c1)[C@]1(C(=O)N2)[C@H](c2ccccc2OCCO)N2[C@H](c3ccccc3)[C@H](c3ccccc3)OC(=O)[C@H]2[C@@H]1C(=O)NC[C@H](O)c1ccccc1 ) 0.91

# get_value(readout='composite z-score', item= C=CCC(OC(C)=O)[C@@H]1[C@@H](N(Cc2ccc(-c3ccccc3)cc2)C(=O)c2ccc(-c3ccccc3)cc2)c2cc(OCCCO)ccc2N1C(=O)c1ccc2ccccc2c1 (stereo partly drawn) ) -0.094

# get_value(readout='composite z-score', item= COc1ccc([Si](C)(C)[C@@H]2[C@@H](CC(=O)N3CCC[C@H]3CO)O[C@]3(C(=O)N(Cc4cccc(N5C(=O)COc6ccccc65)c4)c4ccccc43)[C@H]2C)cc1 ) 1.15

# get_value(readout='composite z-score', item= COc1ccc([Si](C)(C)[C@@H]2[C@@H](CCO)O[C@]3(C(=O)N(Cc4ccccc4)c4ccc(N5C(=O)c6cccc7cccc5c67)cc43)[C@H]2C)cc1 ) 0.342

# get_value(readout='composite z-score', item= CC(C)C(CO)N1C(=O)[C@@H]2C3C(=O)OCCC/C=C\[C@H]3OC23C=CCN(Cn2nnc4ccccc42)C(=O)[C@@H]13 (stereo partly drawn) ) -0.422

More entries:
# get_value(readout='composite z-score', item= COCCOC(=O)N1C(=O)[C@@]2(c3cc(C#CC4(O)CCCCCC4)ccc31)[C@H](c1ccc(O)cc1)N1[C@H](c3ccccc3)[C@H](c3ccccc3)OC(=O)[C@H]1[C@@H]2C(=O)N1CCN(c2ncccn2)CC1 ) 0.417

# get_value(readout='composite z-score', item= COc1ccc(CCNC(=O)[C@@H]2c3ccccc3C(=O)N(C3CCCCC3)[C@H]2c2ccc(CO)cc2)cc1 ) 0.771

# get_value(readout='composite z-score', item= [N-]=[N+]=Nc1ccccc1C[C@@]1(C(=O)NCCN2CCOCC2)N=C(c2ccc(OCCCO)cc2)O[C@@H]1c1ccccc1N=[N+]=[N-] ) 0.898

# get_value(readout='composite z-score', item= [N-]=[N+]=Nc1ccccc1C[C@@]1(C(N)=O)N=C(c2ccc(OCCCO)cc2)O[C@@H]1c1ccccc1N=[N+]=[N-] ) 0.0911

# get_value(readout='composite z-score', item= CCCN1C(=O)[C@@]2(Cc3ccccc31)N=C(c1ccc(OCCCO)cc1)O[C@H]2c1ccccc1 ) 0.801

# get_value(readout='composite z-score', item= COc1ccc([C@H]2OC[C@@H]3C[C@H](Cc4ccccc4)C(=O)N32)cc1 ) 0.582

# get_value(readout='composite z-score', item= CCCCC(CC)C(O)C1C=CC2C(=O)N(c3ccccc3)C(=O)C2N1Nc1ccc(C#N)cc1 (stereo not drawn) ) 1.12

# get_value(readout='composite z-score', item= O=C1O[C@H](c2ccccc2)[C@H](c2ccccc2)N2[C@H]1[C@@H](C(=O)O)[C@]1(C(=O)Nc3ccc(C#CCCO)cc31)[C@H]2c1ccccc1OCCO ) 0.842

###

- System: Fibrinogen (Alexa647-labelled)
- protocol-text: Alexa647-fibrinogen binding to printed small molecules – biochemical, small-molecule microarray, 635/667 nm fluorescence, artefact control for SMM control-protein annotation, profiling panel (AID 1131);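 also: z-score merges 667 nm fluorescence with per-spot signal-to-noise over triplicate slides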
- conditions: fibrinogen-A647 binding fluorescence, higher = more signal
I'd appreciate it if you could label each record using composite z-score and these ranges: L (below 0.4), M (0.4 to below 0.7), H (0.7 or more)

Recorded results for 8 compounds are shown here.
For this compound, which bin applies? CCCCC(O)C1C=CC2C(=O)N(C)C(=O)C2N1N(c1ccccc1)c1ccccc1 (stereo not given) H

For this compound, which bin applies? NC(=O)[C@H]1[C@@H]2C(=O)O[C@@H](c3ccccc3)[C@@H](c3ccccc3)N2[C@@H](c2ccc(OCCO)cc2)[C@]12C(=O)Nc1ccc(C#CCCO)cc12 H

For this compound, which bin applies? COc1ccc(CCNC(=O)[C@@]2(Cc3ccccc3I)c3ccccc3C(=O)N(C3CCCCC3)[C@H]2c2ccc(CO)cc2)cc1 M

For this compound, which bin applies? COc1cc2c(cc1O)C(C1CC1)N(Cc1cccc(OC(F)(F)F)c1)CC2 (stereo not given) L

For this compound, which bin applies? N#Cc1ccc(NN2C(C(O)c3ccc(Br)cc3)C=CC3C(=O)N(c4ccccc4)C(=O)C32)cc1 (stereo not given) M

For this compound, which bin applies? NCCCCCNC(=O)[C@@H]1C[C@@H]2C(=O)N[C@@H](CCCCN)C(=O)N2[C@@H]1c1ccc(O)cc1 H

For this compound, which bin applies? CC(C)C(CO)N1C(=O)[C@@H]2[C@H]3C(=O)OCC=C[C@H]3OC23C=CCN(c2ccc(Cl)cc2)C(=O)[C@@H]13 (stereo not given in full) L

For this compound, which bin applies? O=C1CS(=O)(=O)C(c2cccc([N+](=O)[O-])c2)N1c1ccccc1 (stereo not given) M

More entries:
For this compound, which bin applies? C=CCC(OC(C)=O)[C@@H]1[C@@H](N(Cc2ccc(-c3cccc(C(F)(F)F)c3)o2)C(=O)Cc2ccc(OC)cc2)c2cc(OCCCO)ccc2N1C(=O)c1ccc(-c2ccccc2)cc1 (stereo not given in full) L

For this compound, which bin applies? C=CCN1Cc2ccccc2[C@@H]2OC(c3ccc(OCCCO)cc3)=N[C@]2(CC=C)C1=O M

For this compound, which bin applies? NC(=O)NCC#Cc1ccc2c(c1)[C@]1(C(=O)N2)[C@H](C(=O)N2CCN(c3ncccn3)CC2)[C@H]2C(=O)O[C@H](c3ccccc3)[C@H](c3ccccc3)N2[C@@H]1c1ccc(O)cc1 H

For this compound, which bin applies? COC(=O)[C@@]1(Cc2ccccc2)[C@H]2c3cc(C(=O)N4CCCC4)n(CCc4ccccn4)c3C[C@H]2CN1C(=O)c1ccccc1 H

For this compound, which bin applies? COC(=O)c1c(CC[C@@H](CO)NC(=O)N[C@@H](C)Cn2cc(-c3ccccn3)nn2)oc(C(C)=O)c1C(=O)OC L

For this compound, which bin applies? C=C(COC)C(=O)CC[C@@H](OC(C)=O)c1cccc(OCCO)c1 M

###

- protocol-text: forskolin-driven CRE-LacZ activity in PC12 – cell-based, CRE-LacZ reporter, forskolin-stimulated, primary screen (AID 1146);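 also: PC12 cells with 6xCRE LacZ reporter stimulated by forskolin 10 µM; beta-galactosidase reporter signal reflecting CREB driven transcription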
- conditions: luminescence, 4.5 h, higher = more signal, called active from +8 up or from −8 down
I'd appreciate it if you could label each record using z-score and these ranges: L = under -0.8, M = from -0.8 up to 0.8, H = 0.8 and over

For this compound, which bin applies? C=C[C@@H](OC)[C@H](OC(=O)Nc1ccc(OC)cc1)c1ccc(O)c(F)c1 H

For this compound, which bin applies? C=C(/C(=C/C[C@H](OC(=O)c1ccncc1)c1ccc(CO)o1)c1cnc2ccccc2c1)C(C)C M

For this compound, which bin applies? CCCC=C(CCC)[C@@H](NC(=O)C(C)(C)C)c1ccc(C(=O)OC)cc1 M

For this compound, which bin applies? C=C(COC)C(=O)CC[C@@H](OC(C)=O)c1cccc(OCCO)c1 H

More entries:
For this compound, which bin applies? CC(=O)N1CC2(CC2)CC1c1ccccc1 (centres undefined) M

For this compound, which bin applies? Cc1ccc(S[C@]2(C(=O)NC(C)C)CC(=O)N(Cc3cc(C(F)(F)F)cc(C(F)(F)F)c3)[C@@H]2c2ccc(CO)cc2)cc1 H

For this compound, which bin applies? [N-]=[N+]=Nc1ccccc1C[C@@]1(C(N)=O)N=C(c2ccc(OCCCO)cc2)O[C@@H]1c1ccccc1N=[N+]=[N-] L

For this compound, which bin applies? CCCCCN1CC=CC23O[C@@H]4/C=C\CCCOC(=O)C4[C@H]2C(=O)N(C(C)CO)[C@@H]3C1=O (some centres undefined) L
